# target.or.test.system: human orexin 2 receptor (Homo sapiens (Human), UniProt O43614)
# Sequence (O43614 whole entry): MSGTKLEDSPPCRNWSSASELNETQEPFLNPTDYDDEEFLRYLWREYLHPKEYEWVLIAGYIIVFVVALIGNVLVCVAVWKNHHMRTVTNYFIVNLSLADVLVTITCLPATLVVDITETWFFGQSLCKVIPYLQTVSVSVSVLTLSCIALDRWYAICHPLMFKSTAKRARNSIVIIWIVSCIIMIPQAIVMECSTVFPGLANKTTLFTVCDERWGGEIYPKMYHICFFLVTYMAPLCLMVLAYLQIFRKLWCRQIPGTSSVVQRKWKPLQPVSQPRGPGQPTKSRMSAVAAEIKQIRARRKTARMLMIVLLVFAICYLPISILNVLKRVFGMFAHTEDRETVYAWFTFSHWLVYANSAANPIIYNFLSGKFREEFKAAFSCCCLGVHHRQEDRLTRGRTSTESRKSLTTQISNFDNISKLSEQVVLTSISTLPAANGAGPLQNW
# assay: Human orexin 2 receptor radioligand binding ([3H]-EMPA)
# experimental.setup: HEK293 stably expressing human orexin 2 receptor; [3H]-EMPA; apparent Ki; read-out: hOX2 Ki
assay.readout: Ki

Cc1ccc(-n2nccn2)c(C(=O)N2CCC[C@@H](Oc3ncc(C(F)(F)F)cn3)[C@@H]2C)n1 ... > 10 µM
Cc1ccc(C(=O)N2CCC[C@@H](Nc3nc4ccccc4o3)[C@@H]2C)c(-n2nccn2)n1 ... 9.5 µM

Please turn your attention to the following entry.
Q: // lookup Ki for CCOc1ccccc1C(=O)N1CCC[C@@H](Nc2nccc(-c3ccccc3)n2)[C@H]1C (racemic)
Result: > 10 µM

====

# target.or.test.system: rat orexin 1 receptor (Rattus norvegicus)
Structures can show the parent of a compound that is named as a salt.
Binary label based on Ki with cut-off 20 nM: below gives True, not below gives False.

Example entries and their recorded answers appear below.
C[C@H]1[C@H](Nc2ccc(C(F)(F)F)cn2)CCCN1C(=O)c1cc(Cl)ccc1-n1nccn1 (racemic) ... True
Cc1ccc(-c2ncco2)c(C(=O)N2CCC[C@@H](Nc3ccc(C(F)(F)F)cn3)[C@@H]2C)n1 (racemic) [Example 22, hydrochloride] ... False

Q: Dear colleague, could you confirm whether Ki of "Cc1ccc(C(=O)N2CCC[C@H](Nc3ccc(C(F)(F)F)cn3)[C@H]2C)c(-n2nccn2)c1" falls below 20 nM? Thanks.
Result: False

Q: Try the compound Cc1ccc(-c2ncco2)c(C(=O)N2CCC[C@@H](Nc3ccc(C(F)(F)F)cn3)[C@@H]2C)n1 [Example 25, hydrochloride]
Result: True

====

# target.or.test.system: UniProt:O43614
# assay: Human orexin 2 receptor radioligand binding ([3H]-EMPA)
# experimental.setup: HEK293 stably expressing human orexin 2 receptor; [3H]-EMPA; apparent Ki; read-out: hOX2 Ki
pKi: −log10 of the molar value.
Parameter threshold = 6. Response is y when pKi meets or exceeds it, else n.

Example entries and their recorded answers appear below.
CCOc1ccccc1C(=O)N1CCC[C@@H](Nc2ccc(Br)cn2)[C@H]1C (racemic) ... n
Cc1cnc(C(=O)N2CCC[C@@H](Nc3ncc(C(F)(F)F)cn3)[C@@H]2C)c(-n2nccn2)c1 ... n

Q: Decide: is the reported value of pKi for Cc1cnc(N[C@@H]2CCCN(C(=O)c3ccccc3-n3nccn3)[C@H]2C)nc1 (racemic) equal to or greater than 6?
Result: y

====

# target.or.test.system: rat orexin 1 receptor (Rattus norvegicus)
assay.readout: Ki

Before answering, review these 4 worked examples.
COc1ccc(C(=O)N2CCC[C@@H](Nc3cnc(C(F)(F)F)cn3)[C@@H]2C)c(-n2nccn2)c1 ... 53 nM
Cc1cnc(C(=O)N2CCC[C@@H](Nc3nc4ccccc4o3)[C@@H]2C)c(-n2nccn2)c1 ... 7 nM
Cc1ccc(C(=O)N2CCC[C@@H](Nc3nc4ccccc4o3)[C@@H]2C)c(-n2nccn2)n1 ... 23 nM
Cc1cnc(C(=O)N2CCC[C@@H](Nc3ccc(C(F)(F)F)cn3)[C@@H]2C)c(-n2nccn2)c1 ... 11 nM

Q: // lookup Ki for "Cc1ccc(C(=O)N2CCC[C@@H](Nc3ncc(C(F)(F)F)cn3)[C@@H]2C)c(-n2nccn2)n1"
Result: 70 nM

Q: Try the compound "Cc1cnc(C(=O)N2CCC[C@@H](Nc3cnc(C(F)(F)F)cn3)[C@@H]2C)c(-n2nccn2)c1"
Result: 24 nM

====

# target.or.test.system: human orexin 2 receptor (Homo sapiens (Human), UniProt O43614)
# assay: Human orexin 2 receptor radioligand binding ([3H]-EMPA)
# experimental.setup: HEK293 stably expressing human orexin 2 receptor; [3H]-EMPA; apparent Ki; read-out: hOX2 Ki
assay.readout: Ki (µM)
Answer with a number only, understood to be in µM.

Before answering, review these 3 worked examples.
COc1c(F)cccc1C(=O)N1CCC[C@@H](Nc2nc3cc(Cl)ccc3o2)[C@@H]1C (racemic) [Example 47] ... 1.3
Cc1cnc(C(=O)N2CCC[C@@H](Nc3ccc(Br)cn3)[C@@H]2C)c(-n2nccn2)c1 [Example 92] ... 4.2
C[C@H]1[C@H](Nc2nc3cc(Cl)ccc3o2)CCCN1C(=O)c1ccccc1-n1nccn1 (racemic) [Example 45] ... 0.281

Please turn your attention to the following entry.
Q: // lookup Ki for COc1ccc(C(=O)N2CCC[C@@H](Nc3cnc(C(F)(F)F)cn3)[C@@H]2C)c(-n2nccn2)c1 [Example 82]
Result: 6.4

====

Ki: recorded values
# target.or.test.system: UniProtKB O43614
# assay: Human orexin 2 receptor radioligand binding ([3H]-EMPA)
# experimental.setup: HEK293 stably expressing human orexin 2 receptor; [3H]-EMPA; apparent Ki; read-out: hOX2 Ki

Before answering, review these 2 worked examples.
Cc1ccc(C(=O)N2CCC[C@@H](Nc3ncc(C(F)(F)F)cn3)[C@@H]2C)c(-n2nccn2)n1 [Example 69] ... > 10 µM
COc1ccc(C(=O)N2CCC[C@@H](Nc3ncc(C(F)(F)F)cn3)[C@@H]2C)c(-n2nccn2)c1 [Example 95] ... > 10 µM

Please turn your attention to the following entry.
Q: // lookup Ki for CCOc1ccccc1C(=O)N1CCC[C@@H](Nc2ccc(C(F)(F)F)cn2)[C@H]1C (racemic) [Example 55]
Result: > 10 µM
